Target: ASGPR (Homo sapiens)
Sequence (P07306 whole entry): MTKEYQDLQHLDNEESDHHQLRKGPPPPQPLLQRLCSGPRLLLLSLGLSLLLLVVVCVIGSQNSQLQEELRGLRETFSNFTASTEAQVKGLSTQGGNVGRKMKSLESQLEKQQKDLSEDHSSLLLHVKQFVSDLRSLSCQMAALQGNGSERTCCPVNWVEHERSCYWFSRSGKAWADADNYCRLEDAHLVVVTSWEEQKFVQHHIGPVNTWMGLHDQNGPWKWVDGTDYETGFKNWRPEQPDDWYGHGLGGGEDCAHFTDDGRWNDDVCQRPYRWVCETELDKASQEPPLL
Assay: Affinity to ASGPR by surface plasmon resonance (SPR)
pKd: −log10 of the molar value.
Please respond with reported pKd for every item in the list.

Worked set:
query smiles: O=C(CCOCCNC(=O)COCCOCCOCCNc1ccc([N+](=O)[O-])cc1[N+](=O)[O-])NCCOCCOCCOCCOC[C@@]12CO[C@@H](O1)[C@H](Nc1nc(Cl)ns1)[C@@H](O)[C@H]2O
property label: pKd
value observed: 6.30 to 7.00
//
query smiles: CC(=O)NC[C@H]1OC[C@H](Nc2cncc(C(F)(F)F)n2)[C@@H](O)[C@H]1O
property label: pKd
value observed: > 6.00

For each of the compounds below, state pKd.
1. [N-]=[N+]=NCCCCCC(=O)NC(COCc1cn(CCOCCOCCOCCOC[C@H]2OC[C@H](Nc3nccc(C(F)(F)F)n3)[C@@H](O)[C@H]2O)nn1)COCc1cn(CCOCCOCCOCCOC[C@H]2OC[C@H](Nc3nccc(C(F)(F)F)n3)[C@@H](O)[C@H]2O)nn1
2. [N-]=[N+]=NC[C@H]1OC[C@H](Nc2cncc(C(F)(F)F)n2)[C@@H](O)[C@H]1O
3. OC[C@@]12CO[C@@H](O1)[C@H](Nc1cccc(C(F)(F)F)n1)[C@@H](O)[C@H]2O
4. O=C(O)CNC(COCCC(=O)NCCOCCOCCOCCOC[C@H]1OC[C@H](Nc2nccc(C(F)(F)F)n2)[C@@H](O)[C@H]1O)COCCC(=O)NCCOCCOCCOCCOC[C@H]1OC[C@H](Nc2nccc(C(F)(F)F)n2)[C@@H](O)[C@H]1O
5. CC(C)C[C@@H]1NC(=O)[C@H](Cc2cnc[nH]2)NC(=O)[C@H](Cc2c[nH]c3ccccc23)NC(=O)[C@H](C)NC(=O)[C@@H]2CSSC[C@H](NC(=O)[C@H](Cc3c[nH]c4ccccc34)NC(=O)[C@H](C(C)C)NC(=O)[C@H](CC(C)C)NC(=O)[C@H](CCC(=O)O)NC(=O)CNC1=O)C(=O)N[C@@H]([C@@H](C)O)C(=O)N1CCC[C@@H]1C(=O)N1C[C@@H](NC(=O)CC(=O)NC[C@H]3OC[C@H](Nc4cncc(C(F)(F)F)n4)[C@@H](O)[C@H]3O)C[C@H]1C(=O)N[C@@H](CC(=O)O)C(=O)N2

> 7.00
> 6.00
> 6.00
> 7.00
> 7.00
